Values compiled from patent US8394801B2.

READOUT: melting point

Answered cases to consult:
CCCNC(=O)Nc1cnc2ccc(-c3cc(C)c(O)c(C)c3)cc2n1 [Compound 36] ... 276 to 277 °C
O=C(Nc1cnc2ccc(-c3cc(Cl)c(O)c(Cl)c3)cc2n1)NC1CCCC1 [Compound 81] ... 295 to 296 °C

Query: Assign melting point to the following record: Oc1c(Cl)cc(-c2ccc3ncc(NC(=S)NC4CCC4)nc3c2)cc1Cl [Compound 80]
Result: 277 to 280 °C

Query: Answer with reported melting point of Cc1ccc(NC(=O)Nc2cnc3ccc(-c4cc(C)c(O)c(C)c4)cc3n2)cc1 [Compound 46]
Result: > 300 °C

Query: Provide melting point value for the following compound: Oc1c(Cl)cc(-c2ccc3ncc(NC(=S)NC4CCCCC4)nc3c2)cc1Cl [Compound 21]
Result: 284 °C

Query: Consider the compound Cc1cc(-c2ccc3ncc(NC(=S)NC4CC4)nc3c2)cc(C)c1O [Compound 23] . State its measured melting point.
Result: 274 to 276 °C

Query: Query melting point for Oc1c(Cl)cc(-c2ccc3ncc(NC(=S)NCCCc4ccccc4)nc3c2)cc1Cl [Compound 96]
Result: 248 to 250 °C

Query: Report melting point, nothing else, for this compound: Cc1cc(-c2ccc3ncc(NC(=O)N[C@H](C)C(C)C)nc3c2)cc(C)c1O [Compound 53]
Result: 265 °C

Query: Please indicate melting point recorded for CCCCCNC(=S)Nc1cnc2ccc(-c3cc(Cl)c(O)c(Cl)c3)cc2n1 [Compound 90]
Result: 237 to 238 °C
